Molecular target: recombinant DYRK1A kinase (Homo sapiens (Human))
Test: DYRK1A kinase assay (Ser/Thr 18 peptide Z-lyte FRET assay)
Conditions: recombinant DYRK1A 0.25 µg/mL, ATP 15 µM, Ser/Thr peptide 18 4 µM, one hour at room temperature; table head prints EC50, method says IC50
pEC50: −log10 of the molar value.
observation_type: pEC50

# example entries with known answers
Kindly note the recorded pEC50 for c1cn2cc(-c3ccn4nc(NCC5COC5)ncc34)ccc2n1 [Compound 20] , which is 7.17

The compound identified as CN1CC(Nc2ncc3c(-c4ccc5nccn5c4)ccn3n2)C1 [Compound 64] registered its pEC50 at 6.72

Consider Cc1nc2ccc(-c3ccn4nc(N[C@@H]5[C@@H]6COC[C@@H]65)ncc34)nc2n1CC(F)F [Compound 1914] . Its measured pEC50 is 8.30

[P] Cc1nc2ncc(-c3ccn4nc(N[C@H]5CCN(C)C[C@@H]5F)ncc34)cc2n1CC(F)F [Compound 1886]
[Q] Cc1nc2ccc(-c3ccn4nc(NC5CCN(C(=O)[C@H]6CC6(F)F)CC5)ncc34)nc2n1CC(F)F [Compound 1918]
[R] FC1(CNc2ncc3c(-c4cnc5nccn5c4)ccn3n2)COC1 [Compound 228]
[S] c1cn2cc(-c3ccn4nc(NC5COC5)ncc34)ccc2n1 [Compound 65]
Hey, quick one: sort these by pEC50, largest value first please. Form field (ranking): labels in requested order.
P, Q, R, S
(P: 8.52, Q: 8.15, R: 7.89, S: 7.60)

[1] CC(C)CNc1ncc2c(-c3cnc4nccn4c3)ccn2n1 [Compound 215]
[2] CC(=O)N[C@H]1CC[C@@H](Nc2ncc3c(-c4ccc5nc(C)n(CC(F)F)c5n4)ccn3n2)CC1 [Compound 1898]
[3] Cc1nc2ccc(-c3ccn4nc(N[C@H]5CC[C@@H](CN6CC(F)C6)CC5)ncc34)nc2n1CC(F)F [Compound 1894]
Task for the reader: rank each entry by its pEC50, from the minimum upward. List each label, following the requested order.
3, 1, 2

[I] Cc1nc2ccc(-c3ccn4nc(N[C@H]5CCN(C)C[C@H]5F)ncc34)nc2n1CC(F)F [Compound 1856]
[II] Cc1nc2ncc(-c3ccn4nc(N[C@H]5CC[C@@H](OC(F)F)CC5)ncc34)cc2n1CC(F)F [Compound 687]
[III] CO[C@H]1C[C@H](Nc2ncc3c(-c4cnc5nccn5c4)ccn3n2)C1 [Compound 240]
Ordering criterion: pEC50; begin with the maximum. Put the labels in the requested order and list them out.
II, I, III

[a] Cc1nc2ccc(-c3ccn4nc(N[C@H]5CCN(CC(C)C)C[C@H]5F)ncc34)nc2n1CC(F)F [Compound 1909]
[b] Cc1nc2ncc(-c3ccn4nc(NC5CCN(CCF)CC5)ncc34)cc2n1CC(F)F [Compound 1881]
Looking at recorded values for pEC50, does a or b come in lower? Give the label of your selection.
a

====

Biological target: recombinant DYRK1A kinase (Homo sapiens (Human))
Test: DYRK1A kinase assay (Ser/Thr 18 peptide Z-lyte FRET assay)
Settings: recombinant DYRK1A 0.25 µg/mL, ATP 15 µM, Ser/Thr peptide 18 4 µM, one hour at room temperature; table head prints EC50, method says IC50
pEC50: −log10 of the molar value.
observation_type: pEC50

Study these solved cases before continuing.
Short answer for `Cc1nc2ncc(-c3ccn4nc(N[C@H]5CC[C@@H](OCC(F)F)CC5)ncc34)cc2n1CC(F)F` : pEC50 was 8.70

Reported pEC50 of `CC(C)(F)CNc1ncc2c(-c3ccc4nccn4n3)ccn2n1` : 7.35

// field: pEC50; key: `O[C@H]1CC[C@@H](Nc2ncc3c(-c4ccc5ncccc5c4)ccn3n2)CC1` ; value = 6.41

[I] O[C@H]1C[C@@H](Nc2ncc3c(-c4ccc5ncccc5c4)ccn3n2)C1
[II] CO[C@H]1CC[C@H](Nc2ncc3c(-c4cnc5nccn5c4)ccn3n2)CC1
[III] Cc1nc2ccc(-c3ccn4nc(N[C@H]5CC[C@@H](N6CCOCC6)CC5)ncc34)nc2n1CC(F)F
Put the entries in order of pEC50, starting with the largest number. # list labels per requested ordering
I, II, III
(I: 8.40, II: 8.05, III: 7.74)
